Please respond with reported LogPow for every item in the list.
Test: Determination of lipophilicity, LogPow by HPLC method
Assay type: physicochemical
Details: experimental, pH 7.4
Note: the reply should be a number with no unit written.

Fill in: LogPow of OCCn1cc([C+](c2cn(CCO)c3ccccc23)c2cn(CCO)c3ccccc23)c2ccccc21.[Cl-] [8a] is ___
1.15

Fill in: LogPow of OCCCCCn1cc([C+](c2cn(CCCCCO)c3ccccc23)c2cn(CCCCCO)c3ccccc23)c2ccccc21.[Cl-] [8d] is ___
4

Fill in: LogPow of OCCCn1cc([C+](c2cn(CCCO)c3ccccc23)c2cn(CCCO)c3ccccc23)c2ccccc21.[Cl-] [8b] is ___
1.2

Fill in: LogPow of OCCCCn1cc([C+](c2cn(CCCCO)c3ccccc23)c2cn(CCCCO)c3ccccc23)c2ccccc21.[Cl-] [8c] is ___
2.9

Fill in: LogPow of OCCCCCCn1cc([C+](c2cn(CCCCCCO)c3ccccc23)c2cn(CCCCCCO)c3ccccc23)c2ccccc21.[Cl-] [8e] is ___
5.4
